// data source = the RNAGym collection of RNA variant scans (doi:10.1101/gr.219683.116)

B1: mRNA-splicing (parent)
chain: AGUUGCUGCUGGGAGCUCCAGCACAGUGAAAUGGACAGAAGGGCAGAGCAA

Variants of: B1
Experiment: exon inclusion enrichment index; higher = more inclusion; WT1 exon 5 minigene, HEK293
Mark yes for reported exon inclusion enrichment index of 2 or greater; mark no for anything smaller.

Could you verify whether the entry C6A U7A C9A U10A A20U shows exon inclusion enrichment index of no less than 2? no

API: above_or_equal(metric=exon inclusion enrichment index, cutoff=2) for item G5C C6A U7C G8A U10A A40U G41A no

Does exon inclusion enrichment index meet or surpass 2 for G5C C6G U7C U10C C44G A45U ? yes

Is it the case that A45C has exon inclusion enrichment index reaching or exceeding 2? no

Kindly determine if exon inclusion enrichment index recorded for G5A U7C G8A U10C G42A is above or exactly 2. yes

Quick check, exon inclusion enrichment index >= 2? G5A C6G U7G C9A G46C A47C no

State whether the measured exon inclusion enrichment index reaches 2, counting equality as reaching it, for G2A U3G G5U G8U C9U no

Exam item: decide whether the reported exon inclusion enrichment index for G5U G8U C9U G33C G34U is at least 2. no

Threshold query (exon inclusion enrichment index >= 2) on C6A U7A C9A U10A C19G A20G no

Please tell me: is the variant G5A U7C G8A U10C G12C at or over 2 in terms of exon inclusion enrichment index? no

Is the recorded value of exon inclusion enrichment index equal to or greater than 2 for this variant? G2U U3G G5C C6A U7C G8A U10A no

State whether the measured exon inclusion enrichment index reaches 2, counting equality as reaching it, for U4G C6A U7C G8A U10A no

Is the recorded value of exon inclusion enrichment index equal to or greater than 2 for this variant? G5A C6G U7A G8U C9A no

exon inclusion enrichment index >= 2 for G5A C6U U7A G8U C9A G38C A39C ? no

Does the reported exon inclusion enrichment index for C6A U7C C9A U10C G34A A35C fall at or above the 2 mark? yes

Threshold query (exon inclusion enrichment index >= 2) on G5C C6A U7C G8A U10A G38C A39C no

Form field: exon inclusion enrichment index at least 2? Entry: C6A U7A C9A U10A G11C G12C yes

Please check the record G5C C6G U7C U10A G11U and state if its exon inclusion enrichment index is at or above 2. yes

Confirm if exon inclusion enrichment index reported for the variant C6A U7A C9A U10A G41A is 2 or above. no

API: above_or_equal(metric=exon inclusion enrichment index, cutoff=2) for item C6A U7C C9A U10C G38U A39C yes

Quick check, exon inclusion enrichment index >= 2? G5C U7A G8U C9A no

Identify whether the reported exon inclusion enrichment index of the following variant is 2 or greater: G5U G8U C9U G13C A14G no
